Target desc: mu opioid receptor (MOR) (Homo sapiens, UniProt P35372)
Sequence (P35372 whole entry): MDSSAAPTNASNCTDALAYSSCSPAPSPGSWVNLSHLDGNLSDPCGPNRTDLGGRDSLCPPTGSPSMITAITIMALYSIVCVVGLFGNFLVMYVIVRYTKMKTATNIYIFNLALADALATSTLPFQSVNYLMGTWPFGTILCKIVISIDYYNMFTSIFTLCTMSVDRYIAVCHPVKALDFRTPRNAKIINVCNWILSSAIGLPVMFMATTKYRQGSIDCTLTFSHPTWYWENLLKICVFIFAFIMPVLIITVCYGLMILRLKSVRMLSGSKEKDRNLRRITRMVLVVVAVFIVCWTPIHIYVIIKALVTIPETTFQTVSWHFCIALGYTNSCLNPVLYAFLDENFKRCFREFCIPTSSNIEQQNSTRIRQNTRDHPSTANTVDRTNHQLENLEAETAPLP
Measurement notes: Hit Hunter cAMP signaling assay (adenylyl cyclase inhibition), PAM mode with EC20 endomorphin-1
Type: cell-based
Settings: cAMP EC50 (nM), adenylyl cyclase inhibition, Table 3
// reported EC50 for each item listed
Attribute measured: EC50 (nM)

| Molecule | Value |
| --- | --- |
| Fc1ccc(C2CCCCN2Cc2cccc(Cl)n2)cc1Cl (stereo not shown) [compound 1] | 186 |
| COc1ccc(C2CCCCN2S(=O)(=O)c2ccccc2)cc1Br (stereo not shown) [compound 14] | 9610 |
| Fc1ccc(Cl)cc1CN1CCCCC1c1cccc(C(F)(F)F)n1 (stereo not shown) [compound 2] | 170 |
| [2H]C1(c2cccc(C(F)(F)F)c2)C(F)CCCN1c1nc(Cl)ncc1F (stereo not shown) [compound 207] | 969 |

---

Target desc: UniProt:P35372
Measurement notes: PathHunter β-arrestin recruitment assay, PAM mode with EC20 endomorphin-1
Format: cell-based
Settings: β-arrestin recruitment; read-out: β-arr. EC50
pEC50: −log10 of the molar value.

| Molecule | pEC50 |
| --- | --- |
| Cc1cc(C2CCCCN2S(=O)(=O)c2ccc(Cl)cc2)ccc1F (racemic) | < 5.68 |
| Fc1ccc(C2CSCCN2c2nc(Cl)ncc2F)cc1Cl (centres unmarked) | < 5.68 |
| COc1ccc(C2COCCN2S(=O)(=O)c2ccc(Cl)cc2)cc1Br (racemic) | < 5.68 |
| Fc1cnc(Cl)nc1N1CCCCC1c1ccc2c(c1)CCO2 (centres unmarked) | > 6.15 |
| FC(F)(F)c1cccc(C2CCCCN2Cc2cccc(Cl)c2)n1 (centres unmarked) | 5.68 to 6.15 |

---

The entries below come with measured EC50 values attached.
Target desc: mu opioid receptor (MOR) (Homo sapiens, UniProt P35372)
Measurement notes: Hit Hunter cAMP signaling assay (adenylyl cyclase inhibition), PAM mode with EC20 endomorphin-1
Type: cell-based
Settings: cAMP EC50, adenylyl cyclase inhibition

| Molecule | EC50 |
| --- | --- |
| Fc1cc(C2CC(F)CCN2c2nc(Cl)ncc2F)cc(C(F)(F)F)c1 (stereo not drawn) | < 700 nM |
| Fc1ccc(C2CCCCN2c2nc(Cl)ncc2F)cc1C(F)(F)F (single isomer, unassigned) | < 700 nM |
| Fc1cnc(Cl)nc1N1CCCCC1c1cccc(Cl)c1F (stereo not drawn) | < 700 nM |
| Fc1cc(C2CC(F)(F)CCN2c2nc(Cl)ncc2F)cc(C(F)(F)F)c1 (stereo not drawn) | 700 to 2100 nM |
| COc1ccc(C2CCCCN2c2cncc(C(F)(F)F)n2)cc1Br (stereo not drawn) | > 2100 nM |
| COc1ccc(C2CCCCN2c2cccc(C(F)(F)F)n2)cc1Br (stereo not drawn) | > 2100 nM |
| [2H]C1(c2cccc(C(F)(F)F)c2)C(F)CCCN1Cc1cccc(Cl)c1 (stereo not drawn) | 700 to 2100 nM |
| Fc1cnc(Cl)nc1N1CCCCC1c1ccc(Br)c(C(F)(F)F)c1 (stereo not drawn) | < 700 nM |
| Fc1cccc(C2CCCCN2c2nc(Cl)ncc2F)n1 (stereo not drawn) | > 2100 nM |

---

Target desc: mu opioid receptor (MOR) (Homo sapiens)
Measurement notes: PathHunter β-arrestin recruitment assay, PAM mode with EC20 endomorphin-1
Format: cell-based
Settings: β-arrestin recruitment; read-out: β-arr. EC50

| Compound | EC50 |
| --- | --- |
| COc1ccc(C2CCCCN2c2ccnc(Cl)n2)cc1Br (stereo not drawn) [compound 226] | > 2100 nM |
| O=S(=O)(c1ccc(Cl)cc1)N1CCOCC1c1ccc(F)c(Br)c1 (racemic) [Compound 185] | 700 to 2100 nM |
| Fc1ccc(C2CCCCN2c2ccnc(Cl)n2)cc1Cl (stereo not drawn) [compound 470] | > 2100 nM |
| O=S(=O)(Cc1ccc(Cl)c(Cl)c1)N1CCCCC1c1cccc(C(F)(F)F)c1 (stereo not drawn) [Compound 23] | > 2100 nM |
| Fc1ccc(C2CCCCN2c2nc(Cl)ncc2F)cc1Cl (single isomer, unassigned) [compound 346] | < 700 nM |
| COc1cc(C2CCCCN2c2nc(Cl)ncc2F)ccc1Br (stereo not drawn) [compound 288] | > 2100 nM |
| CCCC1CCCN(c2nc(Cl)ncc2F)C1c1cccc(C(F)(F)F)c1 (stereo not drawn) [compound 247] | > 2100 nM |
| Fc1ccc(Cl)cc1CN1CCCCC1c1ccc(Cl)c(C(F)(F)F)c1 (stereo not drawn) [compound 150] | < 700 nM |
| COc1ncc(F)c(N2CCCCC2c2ccc(F)c(Cl)c2)n1 (stereo not drawn) [compound 461] | > 2100 nM |
